Values from PubChem BioAssay AID2205

Assay: tubulin staining increase by stabilizing compounds – imaging, high-content imaging, primary screen (AID 2205);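 note: anti alpha tubulin signal scored within the nucleus-defined area of each cell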
Settings: HeLa tubulin immunostaining HCS, 24 h, at 10 µM, share of cells brighter than vehicle mean+2SD
In all, about 200,000 compounds went through this assay and about 1,600 (0.8%) were called active.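 Rule for the calls: active = plate Z-score above 3 for both tubulin-high and condensed-nucleus cell shares, with cell loss under 80%, at 10 µM; inactive = the rest, inconclusive results apart.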 Only a selection was taken, and actives are over-represented in it overall.
Classes used: active, inactive

>  <smilesStr>
Cc1cc(-c2csc(N)n2)c(C)n1Cc1ccccc1

>  <qualitativeLabel>
inactive

$$$$
>  <smilesStr>
O=C(CCNS(=O)(=O)c1ccc(Br)s1)NCc1ccccc1Cl

>  <qualitativeLabel>
inactive

$$$$
>  <smilesStr>
COc1cc2c(cc1O)[C@H](Cc1ccc(Oc3cc(C[C@@H]4NCCc5cc(OC)c(O)cc54)ccc3O)cc1)NCC2

>  <qualitativeLabel>
inactive

$$$$
>  <smilesStr>
COc1ccc(Nc2oc(-c3ccccc3Cl)nc2C#N)cc1

>  <qualitativeLabel>
active

$$$$
